tested.system: SARS-CoV-2 spike protein on whole SARS-CoV-2 virus (SARS-CoV-2, UniProt P0DTC2 14-1273)
test.protocol: cell-based or functional assay
measured.parameter: Nmax (%), neutralization maximum
State just the number; it will be interpreted in %.

Enquiry: Dear colleague, please send me the reported Nmax (%), neutralization maximum for B04 IgG1 (antibody, V domains shown) VH: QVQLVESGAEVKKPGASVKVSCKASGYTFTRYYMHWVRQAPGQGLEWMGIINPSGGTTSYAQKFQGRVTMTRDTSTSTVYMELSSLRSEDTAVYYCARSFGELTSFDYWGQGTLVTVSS VL: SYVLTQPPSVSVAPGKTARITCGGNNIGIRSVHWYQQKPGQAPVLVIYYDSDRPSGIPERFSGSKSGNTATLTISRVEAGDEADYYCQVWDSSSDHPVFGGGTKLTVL when you can.
Return: 53.3

Enquiry: Read off the recorded Nmax (%), neutralization maximum for E01 IgG1 (antibody, V domains shown, also called E1) VH: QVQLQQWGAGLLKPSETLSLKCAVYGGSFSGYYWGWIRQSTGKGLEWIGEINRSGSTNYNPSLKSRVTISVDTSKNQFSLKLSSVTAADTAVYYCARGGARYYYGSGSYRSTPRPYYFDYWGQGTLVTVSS VL: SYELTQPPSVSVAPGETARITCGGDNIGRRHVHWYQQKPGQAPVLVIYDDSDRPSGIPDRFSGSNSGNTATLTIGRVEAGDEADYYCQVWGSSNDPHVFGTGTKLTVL
Return: 104

Enquiry: Annotate the binder E08 IgG1 (antibody, V domains shown) VH: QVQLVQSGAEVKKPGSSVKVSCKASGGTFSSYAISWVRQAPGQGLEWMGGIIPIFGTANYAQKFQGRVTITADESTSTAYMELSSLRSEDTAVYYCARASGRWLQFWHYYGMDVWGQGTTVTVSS VL: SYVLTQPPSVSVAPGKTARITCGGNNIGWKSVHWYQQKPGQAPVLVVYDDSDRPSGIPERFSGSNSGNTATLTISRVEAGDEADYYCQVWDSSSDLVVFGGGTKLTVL with its measured Nmax (%), neutralization maximum.
Return: 70.4
